# tested-target: rat NaPi-2b (Rattus norvegicus, UniProt Q9JJ09)
# Sequence (Q9JJ09 1-695): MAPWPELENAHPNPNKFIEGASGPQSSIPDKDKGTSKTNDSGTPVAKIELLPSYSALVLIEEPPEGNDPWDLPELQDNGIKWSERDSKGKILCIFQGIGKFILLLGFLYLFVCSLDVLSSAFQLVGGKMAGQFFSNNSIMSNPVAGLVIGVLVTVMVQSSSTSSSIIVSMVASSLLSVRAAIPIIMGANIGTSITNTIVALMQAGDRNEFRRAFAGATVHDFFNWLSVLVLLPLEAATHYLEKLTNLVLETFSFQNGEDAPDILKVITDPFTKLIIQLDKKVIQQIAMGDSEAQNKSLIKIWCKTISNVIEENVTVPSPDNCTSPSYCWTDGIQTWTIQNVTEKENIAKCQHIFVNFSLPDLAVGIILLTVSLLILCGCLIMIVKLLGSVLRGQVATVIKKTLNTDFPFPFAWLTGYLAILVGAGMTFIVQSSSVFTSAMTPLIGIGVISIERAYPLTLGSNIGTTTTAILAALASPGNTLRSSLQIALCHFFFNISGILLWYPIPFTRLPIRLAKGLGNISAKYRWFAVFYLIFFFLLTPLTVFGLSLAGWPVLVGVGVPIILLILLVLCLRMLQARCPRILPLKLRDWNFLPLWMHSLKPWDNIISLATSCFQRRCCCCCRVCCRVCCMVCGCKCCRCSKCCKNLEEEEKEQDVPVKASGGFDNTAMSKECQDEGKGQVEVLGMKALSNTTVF
# procedure-summary: Sodium-dependent phosphate uptake of Xenopus oocytes which expressed NaPi-2b (32P)
# run-parameters: Xenopus oocytes expressing rat NaPi-2b, 32P radioactive phosphorus; read-out: IC50 (phosphate uptake inhibitory activity)
So I've got a bunch of compounds here, and I need their pIC50 values.
One number for each entry, as −log10 of the molar value.

# example entries with known answers
O=C(Nc1ccc(Cl)cc1C(=O)N/N=C/c1ccc(Cl)c(C(F)(F)F)c1)c1cccnc1 [Compound 189]: 5.83
O=C(Nc1ccc(N2CCCCC2)cc1C(=O)N/N=C/c1ccc(F)cc1)c1cccc(CN2CCN(CCO)CC2)c1 [Compound 866]: 5.72
Cc1ccc(/C=N/NC(=O)c2c(C)csc2NC(=O)c2cccc(CN(CCO)CCO)c2)cc1 [Compound 787]: 5.77
COc1ccc(/C=N/NC(=O)c2ccccc2NC(=O)c2ccc(F)cc2)cc1Br [Compound 102]: 5.25
COc1cccc(/C=N/NC(=O)c2cc(Cl)ccc2NC(=O)c2ccc(CN(C)CCO)cc2)c1 [Compound 418]: 5.03

Count: 7. Required value per item: pIC50.
1. CCN(CC)CCN(C)Cc1cccc(C(=O)Nc2scc(C)c2C(=O)N/N=C/c2ccc(F)cc2)c1 [Compound 565]
2. COc1ccc(/C=N/NC(=O)c2cc(Cl)ccc2NC(=O)c2cccc(CN(C)CCO)c2)cc1 [Compound 401]
3. CCN(CC)CCN(C)Cc1cccc(C(=O)Nc2ccc(OCCOCCOC)cc2C(=O)N/N=C/c2ccc(Cl)c(C(F)(F)F)c2)c1 [Compound 1036]
4. O=C(Nc1ccc(Br)cc1C(=O)N/N=C/c1cccc(F)c1)c1ccc(CNCCN2CCOCC2)cc1 [Compound 713]
5. CCN(CCO)Cc1cccc(C(=O)Nc2ccc(Cl)cc2C(=O)N/N=C/c2ccc(O)cc2)c1 [Compound 431]
6. COc1ccccc1/C=C/C=N/NC(=O)c1cc(Cl)ccc1NC(=O)c1cccnc1 [Compound 354]
7. O=C(Nc1ccc(Br)cc1C(=O)N/N=C/c1ccc(Cl)c(C(F)(F)F)c1)c1ccc(CN2CCC(O)CC2)cc1 [Compound 329]

[4.89, 5.21, 5.82, 4.81, 5.25, 5.81, 5.25]

This collection of values is drawn from patent US8134015B2.
